The reported numbers originate from patent US20250340551A1.

Tested on: Eotaxin-3 (CCL26) release in human whole blood stimulated with IL-4
Assay: Human whole blood eotaxin-3 assay (IL-4 stimulated, Eotaxin-3 release)
Type: cell-based
Details: Homo sapiens, Hec50, 48 h
Overview of recorded pEC50 for various compounds
Quick note: pEC50 values are minus log10 of concentrations in mol/L.

Cc1cc(C(=O)N(C)C)cc(F)c1C1=CCN([C@@H](C)c2cc3c(-c4ccc(N)cn4)ccnc3n2C)CC1
7.42
[2H]C([2H])([2H])N(C(=O)c1ccc(C2=CCN([C@@H](C)c3cc4c(-c5ccc(N)nn5)ccnc4n3C)CC2)cc1)C([2H])([2H])[2H]
6.59
[2H]C([2H])([2H])N(C(=O)c1ccc(C2=CCN([C@H](C)c3cc4c(-c5ccc(N)nc5C#N)ccnc4n3C)CC2)c(C)c1)C([2H])([2H])[2H]
7.18
CN(C)C(=O)c1ccc(C2=CCN(Cc3cc4c(-c5ccc(N)nn5)ccnc4n3C)CC2)nc1
6.07

Problem: Which value of pEC50 has been reported for `CNc1ccc(-c2ccnc3c2cc(CN2CCC(c4ccc(C(=O)N(C)C)cc4F)CC2)n3C)nc1` in the records?
Result: 5.61

Problem: Which value of pEC50 has been reported for `CNc1ccc(-c2ccnc3c2cc(CN2CC=C(c4ccc(C(=O)N(C)C)cc4C(F)(F)F)CC2)n3C)nn1` in the records?
Result: 5.82

Problem: Which value of pEC50 has been reported for `[2H]C([2H])([2H])N(C(=O)c1ccc(C2=CCN([C@@H](C)c3cc4c(-c5cnc(N)c(F)c5)ccnc4n3C)CC2)cc1)C([2H])([2H])[2H]` in the records?
Result: 6.14

Problem: Which value of pEC50 has been reported for CNc1ccc(-c2ccnc3c2cc(C(C)N2CC=C(c4c(C)cc(C(=O)N(C)C)cc4F)CC2)n3C)nc1 (centres unmarked) in the records?
Result: 6.52
